Listed compounds paired with reported kinase still bound, per cent of control
assayed.target: TGFBR2 (human)
experiment.description: KINOMEscan competition binding
test.conditions: compound 10.0 µM

compound | assayed.target | kinase still bound, per cent of control / %
CN(C)C/C=C/C(=O)Nc1cccc(Nc2ncc3c(n2)N(C)c2ccccc2C(=O)N3C)c1 | TGFBR2 (human) | 55
O=C(NC1CC1)c1cccc(-c2ccc3c(NC(=O)C4CC4)n[nH]c3c2)c1 | TGFBR2 (human) | 100
COc1cc(C(=O)NC2CCN(C)CC2)ccc1Nc1ncc2c(n1)N(C1CCCC1)CCC(=O)N2C(C)C | TGFBR2 (human) | 100
Cc1ccc(C(=O)Nc2cccc(C(F)(F)F)c2)cc1Nc1cncc(C(N)=O)c1 | TGFBR2 (human) | 100
C=CC(=O)Nc1cccc(Nc2nc(N[C@H]3CC[C@H](N(C)C)CC3)nc3c2ncn3C(C)C)c1 | TGFBR2 (human) | 100
O=C1Nc2ccc(I)cc2/C1=C/c1cc(Br)c(O)c(Br)c1 | TGFBR2 (human) | 56
CCOc1cc2ncc(C#N)c(Nc3ccc(OCc4ccccn4)c(Cl)c3)c2cc1NC(=O)/C=C/CN(C)C | TGFBR2 (human) | 100
CCCS(=O)(=O)Nc1ccc(F)c(C(=O)c2c[nH]c3ncc(-c4ccc(Cl)cc4)cc23)c1F | TGFBR2 (human) | 2.5
Cc1ccc(NC(=O)c2cccc(C(C)(C)C#N)c2)cc1Nc1ccc2ncn(C)c(=O)c2c1 | TGFBR2 (human) | 94
C[C@@H](Oc1cc(-n2cnc3ccc(CN4CCN(C)CC4)cc32)sc1C(N)=O)c1ccccc1C(F)(F)F | TGFBR2 (human) | 100
N#Cc1c(NC(=O)c2cccc3ccccc23)sc2c1CCCC2 | TGFBR2 (human) | 100
COc1cc(N2CCN(C)CC2)ccc1Nc1nc(N)c(C(=O)c2c(Cl)cccc2Cl)s1 | TGFBR2 (human) | 92
C=CC(=O)Nc1cccc(Oc2nc(Nc3ccc(N4CCN(C)CC4)cc3OC)ncc2Cl)c1 | TGFBR2 (human) | 100
COc1cc(C(=O)NC2CCN(C)CC2)ccc1Nc1ncc2c(n1)N(C1CCCC1)C(C)CC(=O)N2C (stereo not given) | TGFBR2 (human) | 100
Cc1ccc2nc(NCCN)c3ncc(C)n3c2c1 | TGFBR2 (human) | 93
CCN1CCN(Cc2ccc(Nc3ncc4c(n3)N(C)c3ccccc3C(=O)N4C)cc2C(F)(F)F)CC1 | TGFBR2 (human) | 94
Cc1cc([C@@H](C)Nc2ccccc2C(=O)O)c2nc(N3CCOCC3)cc(=O)n2c1 | TGFBR2 (human) | 95
CC[C@@H]1C(=O)N(C)c2cnc(Nc3ccc(C(=O)NC4CCN(C)CC4)cc3OC)nc2N1C1CCCC1 | TGFBR2 (human) | 100
O=C(NOC[C@H](O)CO)c1ccc(F)c(F)c1Nc1ccc(I)cc1F | TGFBR2 (human) | 100
C=CC(=O)Nc1cc(NC(=O)c2ccc(C)c(NC(=O)c3ccno3)c2)cc(C(F)(F)F)c1 | TGFBR2 (human) | 93
Nc1ccc(-c2ccc3ncc4ccc(=O)n(-c5cccc(C(F)(F)F)c5)c4c3c2)cn1 | TGFBR2 (human) | 84
Cn1c(=O)n(-c2ccc(C(C)(C)C#N)cc2)c2c3cc(-c4cnc5ccccc5c4)ccc3ncc21 | TGFBR2 (human) | 100
OCCCNc1cc(-c2ccnc(Nc3cccc(Cl)c3)n2)ccn1 | TGFBR2 (human) | 100
CCC(=O)N1CCN(c2ccc(-n3c(=O)ccc4cnc5ccc(-c6cnc7ccccc7c6)cc5c43)cc2C(F)(F)F)CC1 | TGFBR2 (human) | 77
O=C(O)c1ccc(Nc2ncc3c(n2)-c2ccc(Cl)cc2C(c2c(F)cccc2F)=NC3)cc1 | TGFBR2 (human) | 58
